SYSTEM: Steroidogenic factor 1 (Homo sapiens, UniProt Q13285)
Sequence (Q13285 whole entry, the tested form may be a part): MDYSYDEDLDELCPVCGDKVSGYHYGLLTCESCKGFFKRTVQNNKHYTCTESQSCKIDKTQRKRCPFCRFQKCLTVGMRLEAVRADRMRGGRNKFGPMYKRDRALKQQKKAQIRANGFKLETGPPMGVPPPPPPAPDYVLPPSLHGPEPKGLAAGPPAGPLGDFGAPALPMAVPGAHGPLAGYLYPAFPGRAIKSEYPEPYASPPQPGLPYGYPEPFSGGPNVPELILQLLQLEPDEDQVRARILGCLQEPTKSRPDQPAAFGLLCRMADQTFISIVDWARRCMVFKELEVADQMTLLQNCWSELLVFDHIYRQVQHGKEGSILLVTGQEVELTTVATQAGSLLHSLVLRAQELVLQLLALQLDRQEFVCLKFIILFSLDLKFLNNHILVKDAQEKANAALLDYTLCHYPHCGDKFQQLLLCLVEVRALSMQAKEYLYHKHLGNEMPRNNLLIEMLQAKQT
TEST_SUMMARY: blockers of SF-1 LBD reporter transcription – cell-based, CHO-K1, Gal4-SF-1 LBD, luciferase luminescence, dose response (AID 600)
pIC50: −log10 of the molar value.
PROPERTY_MEASURED: pIC50

Would you please look over these solved cases?
{"COMPOUND": "COc1cc(C2C3=C(N=C(C)C2C#N)c2ccccc2C3=O)cc(OC)c1OC (stereo not given)", "pIC50": "< 5.91"}
{"COMPOUND": "Cc1cccc(NC(=O)Nc2ccc(C#N)cc2)n1", "pIC50": "< 5.91"}
{"COMPOUND": "CCOc1ccccc1C(=O)N1CCN(c2cccc(Cl)c2)CC1", "pIC50": "< 5.91"}
{"COMPOUND": "COc1cccc(-c2nnc(NC(=O)c3ccc(S(=O)(=O)N4CC(C)OC(C)C4)cc3)o2)c1 (stereo not given)", "pIC50": "< 5.44"}

Then this compound:
stdin: Provide the reported pIC50 (system: Steroidogenic factor 1 (Homo sapiens, UniProt Q13285)) for Cc1ccsc1C(=O)OCC(=O)c1cc(C)n(CC2CCCO2)c1C (stereo not given)
stdout: < 7.34
